# Test D disease control rating per record follows
Test system: Phytophthora infestans
test: whole plant or invertebrate
Type: in vivo
setup_conditions: 250 ppm; tomato seedlings; 100 = 100% disease control, 0 = no control
reported_metric: Test D disease control rating (%)

compound="Cn1ncc(O)c(C(=O)Nc2ccc(C(F)(F)F)cc2Cl)c1=O [Compound 137]" reported_metric="Test D disease control rating" recorded_number=97
compound="Cn1ncc(OS(C)(=O)=O)c(C(=O)Nc2ccccc2F)c1=O [Compound 104]" reported_metric="Test D disease control rating" recorded_number=0
compound="CON(C)c1cnn(C)c(=O)c1C(=O)Nc1ccc(OC(F)(F)F)cc1 [Compound 135]" reported_metric="Test D disease control rating" recorded_number=0
compound="Cn1nc(-c2ccccc2)c(O)c(C(=O)Nc2ccccc2C(F)(F)F)c1=O [Compound 26]" reported_metric="Test D disease control rating" recorded_number=58
compound="Cn1ncc(O)c(C(=O)Nc2ccccc2-c2cc(F)c(F)c(F)c2)c1=O [Compound 27]" reported_metric="Test D disease control rating" recorded_number=0
compound="Cn1ncc(OS(C)(=O)=O)c(C(=O)Nc2ncc(Cl)cn2)c1=O [Compound 95]" reported_metric="Test D disease control rating" recorded_number=0
compound="Cn1ncc(O)c(C(=O)Nc2ccccc2F)c1=O [Compound 36]" reported_metric="Test D disease control rating" recorded_number=94
compound="Cn1ncc(O)c(C(=O)Nc2ccc(S(C)(=O)=O)cc2)c1=O [Compound 49]" reported_metric="Test D disease control rating" recorded_number=0
compound="Cn1ncc(O)c(C(=O)Nc2ccccc2Br)c1=O [Compound 35]" reported_metric="Test D disease control rating" recorded_number=71
compound="Cn1ncc(Cl)c(C(=O)Nc2ccc(F)cc2)c1=O [Compound 43]" reported_metric="Test D disease control rating" recorded_number=68
compound="COc1ccccc1NC(=O)c1c(O)cnn(C)c1=O [Compound 34]" reported_metric="Test D disease control rating" recorded_number=0
compound="Cc1cc(C(F)(F)F)ccc1NC(=O)c1c(O)cnn(C)c1=O [Compound 117]" reported_metric="Test D disease control rating" recorded_number=97
compound="Cn1ncc(O)c(C(=O)Nc2c(Cl)cc(Cl)cc2Cl)c1=O [Compound 118]" reported_metric="Test D disease control rating" recorded_number=100
compound="Cn1ncc(O)c(C(=O)Nc2ccc(C(F)(F)F)cc2C(F)(F)F)c1=O [Compound 147]" reported_metric="Test D disease control rating" recorded_number=99
compound="Cn1ncc(Cl)c(C(=O)Nc2ccccc2-c2ccc(F)c(F)c2F)c1=O [Compound 32]" reported_metric="Test D disease control rating" recorded_number=0
compound="Cn1ncc(O)c(C(=O)Nc2ccc(F)cc2)c1=O [Compound 40]" reported_metric="Test D disease control rating" recorded_number=73
compound="CONc1cnn(C)c(=O)c1C(=O)Nc1ccc(OC(F)(F)F)cc1 [Compound 127]" reported_metric="Test D disease control rating" recorded_number=0
compound="Cn1ncc(O)c(C(=O)Nc2ccc(Cl)cc2Cl)c1=O [Compound 37]" reported_metric="Test D disease control rating" recorded_number=95
compound="Cc1ccc(NC(=O)c2c(Cl)cnn(C)c2=O)cc1 [Compound 31]" reported_metric="Test D disease control rating" recorded_number=0
